For each record, write down the corresponding boiling point.
Value expressed in °C; do not type the unit.

Problem: Fill blank: measured boiling point of the molecule CCOC(=O)C(C)(C)Br is ____.
Result: 163

Problem: Fill blank: measured boiling point of the molecule CCC=C(C)C=O is ____.
Result: 136

Problem: Fill blank: measured boiling point of the molecule CCCCCCCCC(=O)OCC is ____.
Result: 227

Problem: Fill blank: measured boiling point of the molecule CCN(CC)c1ccccc1C is ____.
Result: 209

Problem: Fill blank: measured boiling point of the molecule CCC1CCCCC1 is ____.
Result: 132

Problem: Fill blank: measured boiling point of the molecule Cc1c(F)c(F)cc(F)c1F is ____.
Result: 126

Problem: Fill blank: measured boiling point of the molecule CC(C)CC1CCCC1 is ____.
Result: 148

Problem: Fill blank: measured boiling point of the molecule CCCCC(CC)CCC (stereo unspecified) is ____.
Result: 164

Problem: Fill blank: measured boiling point of the molecule CN(C)c1ccc(Cc2ccc(N(C)C)cc2)cc1 is ____.
Result: 390

Problem: Fill blank: measured boiling point of the molecule CCCO[Si](OCCC)(OCCC)OCCC is ____.
Result: 226

Problem: Fill blank: measured boiling point of the molecule FC1(F)C(Cl)=C(Cl)C(F)(F)C1(F)F is ____.
Result: 90.7

Problem: Fill blank: measured boiling point of the molecule CCCCCCOC(=O)CCC is ____.
Result: 208

Problem: Fill blank: measured boiling point of the molecule Cc1ccc(C)c(C=O)c1 is ____.
Result: 220

Problem: Fill blank: measured boiling point of the molecule CCOC(=O)C1CCC1 is ____.
Result: 159

Problem: Fill blank: measured boiling point of the molecule CCCCCCC(C)(C)O is ____.
Result: 178

Problem: Fill blank: measured boiling point of the molecule C=COC(C)C is ____.
Result: 55.5

Problem: Fill blank: measured boiling point of the molecule CCN(CC)C1CCCCC1 is ____.
Result: 193

Problem: Fill blank: measured boiling point of the molecule C=CCCC(C)C is ____.
Result: 85.3

Problem: Fill blank: measured boiling point of the molecule CCCC(C)O (stereo unspecified) is ____.
Result: 119

Problem: Fill blank: measured boiling point of the molecule CCSC#N is ____.
Result: 146

Problem: Fill blank: measured boiling point of the molecule CCCCN(CCO)CCO is ____.
Result: 275

Problem: Fill blank: measured boiling point of the molecule CCC(Br)C(=O)OC (stereo unspecified) is ____.
Result: 168

Problem: Fill blank: measured boiling point of the molecule CCc1nc(C)cnc1C is ____.
Result: 180

Problem: Fill blank: measured boiling point of the molecule C#CC(C)(O)C(C)C (stereo unspecified) is ____.
Result: 134

Problem: Fill blank: measured boiling point of the molecule CCN(CC)CN(CC)CC is ____.
Result: 166

Problem: Fill blank: measured boiling point of the molecule CCC(=O)CO is ____.
Result: 160

Problem: Fill blank: measured boiling point of the molecule c1ccc(C2OCCCO2)cc1 is ____.
Result: 253

Problem: Fill blank: measured boiling point of the molecule CCN(CC)c1ccc(Cl)cc1 is ____.
Result: 252

Problem: Fill blank: measured boiling point of the molecule Cc1c(Cl)ccc(O)c1Cl is ____.
Result: 236

Problem: Fill blank: measured boiling point of the molecule CCC(C)C(CC)C(C)C (stereo unspecified) is ____.
Result: 162

Problem: Fill blank: measured boiling point of the molecule C1=CCSC1 is ____.
Result: 122

Problem: Fill blank: measured boiling point of the molecule CC1CCOC(C)O1 (stereo unspecified) is ____.
Result: 116

Problem: Fill blank: measured boiling point of the molecule CCC(CC)c1ccncc1 is ____.
Result: 217

Problem: Fill blank: measured boiling point of the molecule CCNS(=O)(=O)C(F)(F)C(F)(F)C(F)(F)C(F)(F)C(F)(F)C(F)(F)C(F)(F)C(F)(F)F is ____.
Result: 196

Problem: Fill blank: measured boiling point of the molecule CC(=O)C(C)(C)C(C)=O is ____.
Result: 173

Problem: Fill blank: measured boiling point of the molecule CC(/C=C\c1ccccc1)c1ccccc1 (stereo unspecified) is ____.
Result: 311
